# experimental target: human Smo (amino acids 181-787) (Homo sapiens)
# Construct: expressed in transfected cells; membrane preparation
# Sequence (Q99835 181-787): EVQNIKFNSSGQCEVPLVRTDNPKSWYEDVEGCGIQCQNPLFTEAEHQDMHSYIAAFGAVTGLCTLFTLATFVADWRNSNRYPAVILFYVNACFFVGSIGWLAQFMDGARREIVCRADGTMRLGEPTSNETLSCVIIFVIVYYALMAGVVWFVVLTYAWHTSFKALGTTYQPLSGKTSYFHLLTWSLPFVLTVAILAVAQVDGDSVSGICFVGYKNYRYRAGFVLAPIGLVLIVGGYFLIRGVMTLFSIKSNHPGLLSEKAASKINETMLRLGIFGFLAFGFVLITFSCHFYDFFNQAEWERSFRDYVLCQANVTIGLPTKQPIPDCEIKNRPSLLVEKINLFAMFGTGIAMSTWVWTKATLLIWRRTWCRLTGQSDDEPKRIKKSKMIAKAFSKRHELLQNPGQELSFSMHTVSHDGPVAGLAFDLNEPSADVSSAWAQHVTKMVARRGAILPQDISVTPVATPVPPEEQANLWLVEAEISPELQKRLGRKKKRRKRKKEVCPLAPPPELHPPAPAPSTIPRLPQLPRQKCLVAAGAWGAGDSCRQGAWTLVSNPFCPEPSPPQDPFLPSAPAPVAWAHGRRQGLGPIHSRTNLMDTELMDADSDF
# procedure details: Smo radioligand competition binding assay (displacement of 3H-PF-03451358 from HEK293 membranes)
# condition notes: 0.05 μM test compound; displacement of 3H-PF-03451358; read-out: SMO % inh. @ 0.05 μM
Decision: inhibition at 0.05 µM compared against 90%; not below it gives Criterion met, below it gives Criterion not met.

Worked cases, answers included:
[[record]]
compound = "CN(CCCO)c1cc(-c2nc3ccccc3n2C)c(Cl)cn1 [Example A-163]"
experimental_target = "human Smo (amino acids 181-787) (Homo sapiens)"
cat = "Criterion met"

[[record]]
compound = "Cn1c(-c2cc(N3C[C@@H](O)[C@H](O)C3)ncc2Cl)nc2ccccc21 [Example A-127]"
experimental_target = "human Smo (amino acids 181-787) (Homo sapiens)"
cat = "Criterion not met"

[[record]]
compound = "Cn1c(-c2cc(N3CCNC(=O)C3)ncc2Cl)nc2ccccc21 [Example A-174]"
experimental_target = "human Smo (amino acids 181-787) (Homo sapiens)"
cat = "Criterion not met"

[[record]]
compound = "COCc1nnc2n1CCN(c1cc(-c3nc4ccccc4n3C)c(Cl)cn1)CC2 [Example A-93]"
experimental_target = "human Smo (amino acids 181-787) (Homo sapiens)"
cat = "Criterion not met"

[[record]]
compound = "Cn1c(-c2cc(N3CC(NS(=O)(=O)CCO)C3)ncc2Cl)nc2ccccc21 [Example A-200]"
experimental_target = "human Smo (amino acids 181-787) (Homo sapiens)"
cat = "Criterion met"


Has CN(C1CN(c2cc(-c3nc4ccccc4n3C)c(Cl)cn2)C1)S(C)(=O)=O [Example A-149] a recorded inhibition at 0.05 µM greater than or equal to 90%?
Criterion met

Has Cn1c(-c2cc(N3CC(NC(=O)C4CCOCC4)C3)ncc2Cl)nc2ccccc21 [Example A-205] a recorded inhibition at 0.05 µM greater than or equal to 90%?
Criterion met

Has Cn1c(-c2cc(N3CCC(NS(C)(=O)=O)CC3)ncc2Cl)nc2cccnc21 [Example A-36] a recorded inhibition at 0.05 µM greater than or equal to 90%?
Criterion met

Has Cn1c(-c2cc(N3CCC(C(=O)N4CCCC4)CC3)ncc2Cl)nc2ccccc21 [Example A-100] a recorded inhibition at 0.05 µM greater than or equal to 90%?
Criterion not met

Has Cn1c(-c2ccnc(N3CCC(N4CCOC4=O)CC3)c2)nc2ccccc21 [Example A-15] a recorded inhibition at 0.05 µM greater than or equal to 90%?
Criterion not met

Has CCC(=O)N1CCN(c2cc(-c3nc4ccccc4n3C)c(F)cn2)CC1 [Example D-4] a recorded inhibition at 0.05 µM greater than or equal to 90%?
Criterion met
